Test system: coronavirus HCoV OC43
Experiment: In vitro anti-coronavirus activity by cytopathic model (CPE, CellTiter Glo)
Format: cell-based
Conditions: Betacoronavirus 1, 120 h, HCoV OC43 100 TCID50/well, MRC5 cells, 5 days
Kindly state EC50 for each of the entries shown.
Give bare numbers, in nM.

Consider the following illustrative entries.
{"compound": "CC1C[C@H]2C[C@@H]1N(C(=O)[C@@H](NC(=O)C(F)(F)F)C(C)(C)C)[C@@H]2C(=O)N[C@H](C#N)C[C@@H]1CCNC1=O (stereo partly drawn)", "EC50 [nM]": 205}
{"compound": "N#C[C@H](C[C@@H]1CCNC1=O)NC(=O)[C@@H]1[C@H]2CC[C@H](C2)N1C(=O)[C@@H](NC(=O)C(F)(F)F)C12CCC(CC1)CC2", "EC50 [nM]": 141}

Note: attention shifts to another entry.
stdin: Provide EC50 value for the following compound: N#C[C@H](C[C@@H]1CCNC1=O)NC(=O)[C@@H]1[C@H]2CC[C@H](C2)N1C(=O)[C@@H](NC(=O)C(F)(F)F)C12CC3CC(CC(C3)C1)C2
stdout: 62
